Data credit: paper PMC8205226

System: HIV-1 IN mutant Y143C
methodSummary: single-round infectivity assay, Y143C IN mutant
Format: cell-based
reportedConditions: Human immunodeficiency virus 1, read-out: EC50 values Y143C, single round infection, n = 4
reportedProperty: pEC50
// returns pEC50 (minus log10 of molar concentration), number only

> print(dat)
                                  smilesstr  measurement
1  O=C(NCc1ccc(F)cc1F)c1c(O)c2cc(CCS(=O)(=O)c3ccccc3)cnc2n(O)c1=O         7.73
2  O=C(NCc1ccc(F)cc1F)c1c(O)c2c(CO)ccnc2n(O)c1=O         8.62

According to the records, this compound `COC(=O)CNc1c(C(=O)NCc2ccc(F)cc2F)c(=O)n(O)c2ncccc12` displays pEC50 of 7.41

pEC50 reading for `Nc1c(C(=O)NCc2ccc(F)cc2F)c(=O)n(O)c2ncc(CCS(=O)(=O)c3ccccc3)cc12` : 8.77

Just so you know, measured pEC50 for `Nc1c(C(=O)NCc2ccc(F)cc2F)c(=O)n(O)c2ncc(CCS(=O)(=O)CCN3CCOCC3)cc12` came out at 6.36

###

Test system: HIV-1 IN mutant S119R
methodSummary: single-round infectivity assay, S119R IN mutant
Type: cell-based
reportedConditions: Human immunodeficiency virus 1, read-out: EC50 values S119R
reportedProperty: EC50 (nM)
Hi! Could you send only the number? It should be in nM, unit omitted.

Consider the worked cases shown below.
> print(dat)
                                   compound     targetortestsystem  reportedproperty  measurement
1  Nc1c(C(=O)NCc2ccc(F)cc2F)c(=O)n(O)c2ncc(CCCCCCO)cc12 [4d]  HIV-1 IN mutant S119R              EC50          2.1
2  CS(=O)(=O)CCc1cnc2c(c1)c(N)c(C(=O)NCc1ccc(F)cc1F)c(=O)n2O [6u]  HIV-1 IN mutant S119R              EC50         56.4
3  O=C(NCc1ccc(F)cc1F)c1c(O)c2cc(CCS(=O)(=O)c3ccccc3)cnc2n(O)c1=O [6w]  HIV-1 IN mutant S119R              EC50         38.2
4  O=C(NCc1ccc(F)cc1F)c1c(O)c2c(CO)ccnc2n(O)c1=O [5j]  HIV-1 IN mutant S119R              EC50            7

response.value for Nc1c(C(=O)NCc2ccc(F)cc2F)c(=O)n(O)c2ncc(CCS(=O)(=O)CCN3CCOCC3)cc12 [6v] (field: EC50) = 490

###

Listed below: pEC50 values for each entry.
Tested on: HIV-1 IN mutant P142S
methodSummary: single-round infectivity assay, P142S IN mutant
Format: cell-based
reportedConditions: Human immunodeficiency virus 1, read-out: EC50 values P142S
# pEC50 is unitless: minus log10 of the molar concentration; print number only

> print(dat)
                                   compound  reportedproperty  measurement
1  O=C(NCc1ccc(F)cc1F)c1c(O)c2c(CO)ccnc2n(O)c1=O             pEC50         8.46
2  Nc1c(C(=O)NCc2ccc(F)cc2F)c(=O)n(O)c2ncc(CCCCCCO)cc12             pEC50         8.92
3  Nc1c(C(=O)NCc2ccc(F)cc2F)c(=O)n(O)c2ncc(CCS(=O)(=O)CCN3CCOCC3)cc12             pEC50         6.46
4  C[C@@H]1CCO[C@H]2Cn3cc(C(=O)NCc4ccc(F)cc4F)c(=O)c(O)c3C(=O)N12 [DTG, dolutegravir, reference compound]             pEC50         8.66
5  Nc1c(C(=O)NCc2ccc(F)cc2F)c(=O)n(O)c2ncc(CCS(=O)(=O)c3ccccc3)cc12             pEC50         8.82
6  O=C(NCc1ccc(F)cc1F)c1c(O)c2cc(CCS(=O)(=O)c3ccccc3)cnc2n(O)c1=O             pEC50         7.51
7  COC(=O)CNc1c(C(=O)NCc2ccc(F)cc2F)c(=O)n(O)c2ncccc12             pEC50         7.57

Next, consider the following compound.
What the record says about `CS(=O)(=O)CCc1cnc2c(c1)c(N)c(C(=O)NCc1ccc(F)cc1F)c(=O)n2O` : pEC50 is 7.29
